System tested: Platelet glycoprotein IIb/IIIa (human, UniProt P08514 32-1039; P05106 27-788)
Measurement protocol: cell-based or functional assay
Positions of bridges follow the written chain, without caps; N, C: chain ends. Non-standard residues stand in square brackets, D forms with d. No end group written: not given here. Pen = CC(C)(S)[C@H](N)C(=O)O
Readout name: IC50, Thrombin Stimulated Aggregation (µM)
Write the answer as a number in µM, unit excluded.

Some solved entries appear below for comparison.
| Binder | Unit tag | Quantitative result |
| --- | --- | --- |
| G[Pen]LRGDSPCA (disulfide 2-9) [G(Pen)LRGDSPCA] | µM | 308 |
| R[Pen]GRGDTPCR (disulfide 2-9) [R(Pen)GRGDTPCR] | µM | 2 |
| G[Pen]GHRGDTRCA (disulfide 2-10) [G(Pen)GHRGDTRCA] | µM | 17 |
| R[Pen]GRGDWPCR (disulfide 2-9) [R(Pen)GRGDWPCR] | µM | 0.53 |
| R[Pen]GRGDLRCA (disulfide 2-9) [R(Pen)GRGDLRCA] | µM | 13 |
| G[Pen]LRGDSRCA (disulfide 2-9) [G(Pen)LRGDSRCA] | µM | 49 |

// switching to the query binder
Suppose we examine the binder R[Pen]GRGDSRCA (disulfide 2-9) [R(Pen)GRGDSRCA] ; what IC50, Thrombin Stimulated Aggregation value has been reported? 12
